experiment: DRUGMATRIX: Calcium Channel Type L, Dihydropyridine radioligand binding (ligand: [3H] Nitrendipine); format: cell membranes, Rattus norvegicus, Wistar, Cerebral cortex, Membrane; details: Not Active = under 50% inhibition at 10 µM; read-out: IC50
Property Measured: IC50 (nM)
Report the value in nM with no unit label.

Known IC50 results, listed for orientation:
COC(=O)[C@H]1[C@H]2C[C@@H]3c4[nH]c5cc(OC)ccc5c4CCN3C[C@H]2C[C@@H](OC(=O)c2cc(OC)c(OC)c(OC)c2)[C@@H]1OC
821
Cc1c(O)cccc1C(=O)N[C@@H](CSc1ccccc1)[C@H](O)CN1C[C@H]2CCCC[C@H]2C[C@H]1C(=O)NC(C)(C)C
9840

Now, please, on to the next compound.
Ask | Any idea what its IC50 is? The compound is CCCCCCCCNC(C)C(O)c1ccc(SC(C)C)cc1 (stereo not drawn)
Reply | 260

###

target: D(4) dopamine receptor (Homo sapiens, UniProt P21917); experiment: DRUGMATRIX: Dopamine D4.2 radioligand binding (ligand: [3H] Spiperone); assay type: cell membranes, CHO-K1, Membrane; details: cho-k1; Not Active = under 50% inhibition at 10 µM
Sequence (P21917 whole entry): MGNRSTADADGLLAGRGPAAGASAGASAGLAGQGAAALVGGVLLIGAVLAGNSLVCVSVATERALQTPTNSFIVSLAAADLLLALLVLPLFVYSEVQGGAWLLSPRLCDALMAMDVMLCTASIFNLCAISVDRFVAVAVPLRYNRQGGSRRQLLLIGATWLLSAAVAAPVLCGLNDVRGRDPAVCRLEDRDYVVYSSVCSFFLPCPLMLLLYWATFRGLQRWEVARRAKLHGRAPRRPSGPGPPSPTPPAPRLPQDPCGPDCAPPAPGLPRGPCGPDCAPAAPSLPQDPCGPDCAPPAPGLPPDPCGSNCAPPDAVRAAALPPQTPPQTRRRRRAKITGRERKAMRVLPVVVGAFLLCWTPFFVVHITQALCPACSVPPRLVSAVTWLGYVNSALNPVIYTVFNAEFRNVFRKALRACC
Property Measured: IC50

Known IC50 results, listed for orientation:
COc1ccc2c(c1OC)C(=O)O[C@@H]2[C@H]1c2c(cc3c(c2OC)OCO3)CCN1C [NOSCAPINE]
Not Active
O=C(c1ccccc1F)N1CCC(Cc2ccccc2)CC1
Not Active
C[C@]12CC[C@H]3[C@@H](CCC4=CC(=O)CC[C@@H]43)[C@@H]1CC[C@@H]2O [NANDROLONE]
Not Active
CCOC(=O)c1ncn2c1CN(C)C(=O)c1cc(F)ccc1-2 [FLUMAZENIL]
Not Active
CC(C)c1c(C(=O)Nc2ccccc2)c(-c2ccccc2)c(-c2ccc(F)cc2)n1CC[C@@H](O)C[C@@H](O)CC(=O)O [ATORVASTATIN]
Not Active

Ask | Any idea what its IC50 is? The compound is C[C@@H]1C/C=C/C=C/C=C/C=C/[C@H](O[C@@H]2O[C@H](C)[C@@H](O)[C@H](N)[C@@H]2O)C[C@@H]2O[C@](O)(C[C@@H](O)C[C@H]3O[C@@H]3/C=C/C(=O)O1)C[C@H](O)[C@H]2C(=O)O [NATAMYCIN]
Reply | Not Active

Ask | And for CCC1=C(C)CN(C(=O)NCCc2ccc(S(=O)(=O)NC(=O)N[C@H]3CC[C@H](C)CC3)cc2)C1=O [GLIMEPIRIDE] ?
Reply | Not Active

Ask | And for COC(=O)[C@H]1[C@H]2C[C@@H]3c4[nH]c5cc(OC)ccc5c4CCN3C[C@H]2C[C@@H](OC(=O)c2cc(OC)c(OC)c(OC)c2)[C@@H]1OC [RESERPINE] ?
Reply | Not Active

###

Biological target: Thromboxane-A synthase (Homo sapiens, UniProt P24557);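 note: enzyme inhibition assay with PGH2 supplied as substrate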; note: in other assays of this panel Not Active means under 50% inhibition at 10 µM
Sequence (P24557 whole entry): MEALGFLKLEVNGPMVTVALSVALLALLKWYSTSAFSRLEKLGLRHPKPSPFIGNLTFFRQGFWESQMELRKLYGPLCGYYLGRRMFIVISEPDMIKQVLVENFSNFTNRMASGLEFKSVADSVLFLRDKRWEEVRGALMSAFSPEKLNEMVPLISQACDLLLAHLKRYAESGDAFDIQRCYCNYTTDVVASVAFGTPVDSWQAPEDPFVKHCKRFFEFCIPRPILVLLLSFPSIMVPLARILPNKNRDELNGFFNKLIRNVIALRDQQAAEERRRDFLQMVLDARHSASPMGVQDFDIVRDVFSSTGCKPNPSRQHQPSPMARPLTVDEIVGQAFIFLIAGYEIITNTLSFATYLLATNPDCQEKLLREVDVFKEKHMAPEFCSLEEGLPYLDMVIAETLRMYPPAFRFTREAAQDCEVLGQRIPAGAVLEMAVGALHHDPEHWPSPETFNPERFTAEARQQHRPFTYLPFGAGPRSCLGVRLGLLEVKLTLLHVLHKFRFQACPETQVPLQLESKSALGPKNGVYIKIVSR
Test: biochemical
Type: tissue-based, Platelet
Conditions: read-out: IC50
Property Measured: IC50 (µM)
Report the value in µM with no unit label.

Ask | Lookup: IC50 / Thromboxane-A synthase (Homo sapiens, UniProt P24557) / O=c1c(-c2ccc(O)cc2)coc2cc(O)cc(O)c12 [GENISTEIN]
Reply | 7.72

Ask | And for "CCOc1nc2cccc(C(=O)O)c2n1Cc1ccc(-c2ccccc2-c2nnn[nH]2)cc1" ?
Reply | 3.06

Ask | And for Clc1ccc(COC(Cn2ccnc2)c2ccc(Cl)cc2Cl)c(Cl)c1 (centres undefined) [MICONAZOLE] ?
Reply | 0.263

Ask | And for "Cc1c(O)cccc1C(=O)N[C@@H](CSc1ccccc1)[C@H](O)CN1C[C@H]2CCCC[C@H]2C[C@H]1C(=O)NC(C)(C)C" ?
Reply | 21.1

###

Molecular target: Alpha-2A adrenergic receptor (Homo sapiens, UniProt P08913); note: in other assays of this panel Not Active means under 50% inhibition at 10 µM
Sequence (P08913 whole entry): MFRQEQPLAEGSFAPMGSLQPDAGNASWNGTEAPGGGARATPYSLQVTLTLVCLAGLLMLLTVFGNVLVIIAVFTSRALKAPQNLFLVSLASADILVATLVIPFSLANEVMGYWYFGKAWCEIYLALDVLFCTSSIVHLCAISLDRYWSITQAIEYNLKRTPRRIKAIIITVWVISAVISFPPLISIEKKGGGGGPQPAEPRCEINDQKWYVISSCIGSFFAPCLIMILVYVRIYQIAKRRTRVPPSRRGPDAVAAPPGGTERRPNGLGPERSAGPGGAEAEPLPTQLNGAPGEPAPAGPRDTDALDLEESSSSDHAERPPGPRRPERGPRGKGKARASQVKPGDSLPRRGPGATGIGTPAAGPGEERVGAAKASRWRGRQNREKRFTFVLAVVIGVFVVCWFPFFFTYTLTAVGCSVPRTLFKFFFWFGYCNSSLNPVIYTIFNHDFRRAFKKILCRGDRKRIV
Format: cell membranes, Sf9, Membrane
Settings: read-out: IC50
Property Measured: IC50 (nM)
Report the value in nM with no unit label.

Known IC50 results, listed for orientation:
CC(C)C[C@H]1C(=O)N2CCC[C@H]2[C@]2(O)O[C@](NC(=O)[C@@H]3C=C4c5cccc6[nH]cc(c56)C[C@H]4N(C)C3)(C(C)C)C(=O)N12
7.95
CN1CCCC(CN2c3ccccc3Sc3ccccc32)C1 (centres undefined)
1460
CC1CCC(NC(=O)N(CCCl)N=O)CC1 (centres undefined)
4810

Now, please, on to the next compound.
Ask | Any idea what its IC50 is? The compound is Clc1ccc(COC(Cn2ccnc2)c2ccc(Cl)cc2Cl)c(Cl)c1 (centres undefined)
Reply | 3970

###

Molecular target: UniProt P11509
Sequence (P11509 whole entry): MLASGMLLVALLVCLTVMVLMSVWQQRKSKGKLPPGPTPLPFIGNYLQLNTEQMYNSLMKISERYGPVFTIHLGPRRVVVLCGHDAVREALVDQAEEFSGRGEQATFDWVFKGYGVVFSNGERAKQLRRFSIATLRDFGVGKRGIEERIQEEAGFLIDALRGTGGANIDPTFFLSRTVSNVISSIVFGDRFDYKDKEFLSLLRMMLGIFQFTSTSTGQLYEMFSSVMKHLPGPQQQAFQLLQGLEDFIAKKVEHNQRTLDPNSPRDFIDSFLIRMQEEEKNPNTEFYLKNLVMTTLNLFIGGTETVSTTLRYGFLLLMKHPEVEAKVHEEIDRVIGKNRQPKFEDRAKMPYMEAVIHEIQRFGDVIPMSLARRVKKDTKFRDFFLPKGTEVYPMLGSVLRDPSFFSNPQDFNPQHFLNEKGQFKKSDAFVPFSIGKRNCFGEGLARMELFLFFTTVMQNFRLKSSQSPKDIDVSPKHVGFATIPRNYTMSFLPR
Details: bti-tn-5b1-4
Property Measured: Ki

Known Ki results, listed for orientation:
C[C@]12C=CC(=O)C=C1CC[C@H]1[C@@H]3C[C@@H](O)[C@](O)(C(=O)CO)[C@@]3(C)C[C@H](O)[C@@]12F
Not Active
NC(=O)N1c2ccccc2CC(=O)c2ccccc21 [OXCARBAZEPINE]
Not Active
CC(C)NC[C@@H](O)COc1cccc2ccccc12
Not Active
Nc1cc(-c2ccncc2)c[nH]c1=O
Not Active
CC(=O)OC[C@H]1O[C@@H](n2ncc(=O)[nH]c2=O)[C@H](OC(C)=O)[C@@H]1OC(C)=O
Not Active

Now, please, on to the next compound.
Ask | Any idea what its Ki is? The compound is CCc1ccc(CCOc2ccc(CC3SC(=O)NC3=O)cc2)nc1 (stereo not given)
Reply | Not Active

###

target: C-C chemokine receptor type 2 (Homo sapiens, UniProt P41597); assay type: cell membranes, Membrane; conditions: cho-k1; note: in other assays of this panel Not Active means under 50% inhibition at 10 µM
Sequence (P41597 whole entry): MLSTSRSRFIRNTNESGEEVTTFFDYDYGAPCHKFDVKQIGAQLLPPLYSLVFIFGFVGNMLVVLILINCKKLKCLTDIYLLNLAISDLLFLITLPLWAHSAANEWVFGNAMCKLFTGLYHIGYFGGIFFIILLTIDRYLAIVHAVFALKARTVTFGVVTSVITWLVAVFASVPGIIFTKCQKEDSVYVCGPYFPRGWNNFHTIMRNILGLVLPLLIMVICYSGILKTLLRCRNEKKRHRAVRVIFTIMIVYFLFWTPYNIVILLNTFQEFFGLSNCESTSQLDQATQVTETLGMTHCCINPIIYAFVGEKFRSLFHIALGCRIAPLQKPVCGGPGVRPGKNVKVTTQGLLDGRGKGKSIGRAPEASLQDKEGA
Property Measured: IC50

Known IC50 results, listed for orientation:
CC(=O)Oc1ccccc1C(=O)O [ASPIRIN]
Not Active
O=c1c(-c2ccc(O)cc2)coc2cc(O)cc(O)c12 [GENISTEIN]
Not Active
C#C[C@]1(O)CC[C@H]2[C@@H]3CCC4=CC(=O)CC[C@]4(C)[C@H]3CC[C@@]21C [ETHISTERONE]
Not Active
CC(C)(C(=O)O)c1ccc(C(O)CCCN2CCC(C(O)(c3ccccc3)c3ccccc3)CC2)cc1 (centres undefined) [FEXOFENADINE]
Not Active
CCCNC(=O)NS(=O)(=O)c1ccc(Cl)cc1 [CHLORPROPAMIDE]
Not Active

Ask | Any idea what its IC50 is? The molecule is CN(C)C(=O)Oc1cccc([N+](C)(C)C)c1.[Br-] [NEOSTIGMINE BROMIDE]
Reply | Not Active

Ask | And for Oc1ccc2c3c1O[C@H]1[C@@H](O)CC[C@@]4(O)[C@@H](C2)N(CC2CCC2)CC[C@]314 [NALBUPHINE] ?
Reply | Not Active

Ask | And for Cn1c(=O)c2c(ncn2C)n(C)c1=O [CAFFEINE] ?
Reply | Not Active

Ask | And for CCN(CC)CCNC(=O)c1ccc(N)cc1 [PROCAINAMIDE] ?
Reply | Not Active

Ask | And for CC1=NN(c2ccccc2)C(=O)C1 [EDARAVONE] ?
Reply | Not Active

Ask | And for C[S+]([O-])c1ccc(-c2nc(-c3ccncc3)c(-c3ccc(F)cc3)[nH]2)cc1 (centres undefined) [SB-203580] ?
Reply | Not Active
